Each recorded value in this set is attributed to patent US12435072B2.

- Target System: CYP3A4 (Homo sapiens)
- Sequence (P08684 whole entry): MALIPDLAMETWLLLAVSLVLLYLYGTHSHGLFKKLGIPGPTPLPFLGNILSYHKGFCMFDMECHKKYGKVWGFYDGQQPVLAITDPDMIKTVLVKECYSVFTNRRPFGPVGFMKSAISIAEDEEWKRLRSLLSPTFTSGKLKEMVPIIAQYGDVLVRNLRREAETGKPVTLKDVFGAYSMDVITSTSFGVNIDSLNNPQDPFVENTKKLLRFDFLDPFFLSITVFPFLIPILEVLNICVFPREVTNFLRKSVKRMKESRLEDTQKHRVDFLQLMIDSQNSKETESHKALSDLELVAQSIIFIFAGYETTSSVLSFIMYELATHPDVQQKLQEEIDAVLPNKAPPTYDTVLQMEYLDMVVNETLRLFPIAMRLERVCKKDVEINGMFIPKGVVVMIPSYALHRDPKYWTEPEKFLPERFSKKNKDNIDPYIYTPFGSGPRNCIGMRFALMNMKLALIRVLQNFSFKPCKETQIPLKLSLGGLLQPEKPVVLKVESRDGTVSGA
- Measurement Description: CYP inhibition in human liver microsomes, CYP3A4 (midazolam)
- Format: in vitro ADME
- Parameters: incubated with human liver microsomes; tissue Eurofins ITEMG232; host or cells: human liver microsomes
- Test Parameters: probe midazolam, substrate midazolam, read-out: CYP3A4 midazolam Inh %
Metric Name: inhibition at 10 µM (%)

Smiles Text: Cc1cn(Cc2ccc(-c3cc(CC(C)C)sc3S(=O)(=O)NC(=O)NCc3ccccn3)cc2)c(C)n1
inhibition at 10 µM, %: 22

Smiles Text: Cc1nccn1Cc1ccc(-c2cc(CC(C)C)sc2S(=O)(=O)NC(=O)NCc2ccccn2)cc1
inhibition at 10 µM, %: 22.1

Smiles Text: Cc1nccn1Cc1ccc(-c2cc(CC(C)C)sc2S(=O)(=O)NC(=O)NCc2ccccc2)cc1F
inhibition at 10 µM, %: 32

Smiles Text: Cc1nccn1Cc1ccc(-c2cc(CC(C)C)sc2S(=O)(=O)NC(=O)NCCCC(F)(F)F)cc1
inhibition at 10 µM, %: 26.7

1: Cc1nccn1Cc1ccc(-c2cc(CC(C)C)sc2S(=O)(=O)NC(=O)NCc2cc(Cl)ccn2)cc1F.O=C(O)C(F)(F)F
2: Cc1nccn1Cc1ccc(-c2cc(CC(C)C)sc2S(=O)(=O)NC(=O)NCC2CCC(F)(F)CC2)cc1F.O=C(O)C(F)(F)F
3: Cc1nccn1Cc1ccc(-c2cc(CC(C)C)sc2S(=O)(=O)NC(=O)NCc2ccccc2)cc1
Sort ascending by inhibition at 10 µM. List the labels, following the order given in the request. 1, 3, 2
(1: 22%, 3: 41.3%, 2: 85%)
